# TGT: T1, N-terminal fragment of human cardiac troponin T (HcTnT-N69) (human)
# T1 construct: Recombinantly produced and purified; immobilised on microtiter plates in the ELISA; also the immunogen; also called N69 peptide; isolated (free, cleaved) HcTnT-N69 peptide
# T1 peptide: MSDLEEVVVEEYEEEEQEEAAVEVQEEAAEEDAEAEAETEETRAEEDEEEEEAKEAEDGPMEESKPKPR
# METHOD SUMMARY: indirect ELISA titration, antigen immobilised on plate

- BINDER: "mouse monoclonal antibody 1D6 (antibody, V domains shown, Mouse hybridoma mAb, IgG1 kappa (VH1/VL1); they appear to lack the first N-terminal residues; also called mAb 1D6; Class I mAb) VH: GPELVKPGASVKISCKTSGYTFTENTIHWVKQSHGKSLEWVGGINPNNGGTNYNQKFKGRAALTVDKSSSTAYMELRSLTSEDSAVYYCARSWDWFAYWGQGTLVTVSA VL: LSLPVSLGDQASISCRSSQSLVHSNGNTYLHWYLQKPGQSPKLLVYKVSNRFSGVPDRFSGSGSGTDFTLKIIRVEAEDLGVYFCSQSTRIPFTFGSGTKLEMKR"
  binding result: "binds"
- BINDER: "mouse monoclonal antibody 3H5 (antibody, IgM, V domains shown, Mouse hybridoma mAb, IgM kappa (VH3/VL4); also called mAb 3H5; Class IV mAb) VH: GGGLVQPKGSLKLSCAASGFTFNTYAMNWVRQAPGKGLEWVARIRSKSNNYATYYADSVKDRFTISRDDSQSMLYLQMNNLKTEDTAMYYCVRHDGVAWFAYWGQGTLVTVSA VL: LSLPVSLGDQASISCRSSQSIVHSNGNTYLEWYLQKPGQSPKLLIYKVSNRFSGVPDRFSGSGSGTDFTLKISRVEAEDLGVYYCFQGSHVPPTFGAGTKLELKR"
  binding result: "binds"
- BINDER: "mouse monoclonal antibody 2A8 (antibody, V domains shown, Mouse hybridoma mAb, IgG1 kappa (VH1/VL1), separately isolated hybridoma with the same variable regions as 1D6; also called Class I mAb; anti-N69 mAb) VH: GPELVKPGASVKISCKTSGYTFTENTIHWVKQSHGKSLEWVGGINPNNGGTNYNQKFKGRAALTVDKSSSTAYMELRSLTSEDSAVYYCARSWDWFAYWGQGTLVTVSA VL: LSLPVSLGDQASISCRSSQSLVHSNGNTYLHWYLQKPGQSPKLLVYKVSNRFSGVPDRFSGSGSGTDFTLKIIRVEAEDLGVYFCSQSTRIPFTFGSGTKLEMKR"
  binding result: "binds"

Source listed as patent US20180364256A1.
